Record form. Attribute: %Inh. Fill in for each entry.
System: BMPR2
Settings: concentration: 1 μM, replicates: in singlicate; n = 1;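 note: KINOMEscan kinase panel screen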
Please reply with the bare figure in % and do not write the unit itself.

Entry COc1cccc(C2=C(N(C)c3ccccc3)C(=O)NC2=O)c1 : reported %Inh = ? 0

Entry COc1cc2nccc(Nc3ccc(OCc4ccc(NC(C)=O)cc4)cc3)c2cc1OC.Cl : reported %Inh = ? 8

Entry O=c1cc(N2CCOCC2)nc2n(Cc3ccc(F)c(Cl)c3)ccn12 : reported %Inh = ? 0

Entry CCS(=O)(=O)c1ccc(OC)c(Nc2ncc(-c3ccc(F)cc3)o2)c1.Cl : reported %Inh = ? 0

Entry CCn1c(-c2ccoc2)nc2cnccc21 : reported %Inh = ? 20

Entry O=C(Nc1n[nH]c2cc(-c3ccccc3F)ccc12)C1CC1 : reported %Inh = ? 0

Entry COc1cc(OC)cc(-c2cc3cnc(N)nc3nc2NC(=O)NC(C)(C)C)c1 : reported %Inh = ? 0

Entry Cc1cc(Nc2nc(-c3cccc(C)n3)nc3ccccc23)ccn1 : reported %Inh = ? 0

Entry O=C(Nc1n[nH]c2nc(-c3ccccc3)c(Br)cc12)C1CC1 : reported %Inh = ? 0

Entry O=C(NCc1cccs1)c1cc(C(=O)c2c(Cl)cccc2Cl)c[nH]1 : reported %Inh = ? 15

Entry O=C(Nc1ccc2c(c1)OCO2)NC1CCN(c2ccnc(NCc3ccc(F)cc3)n2)CC1 : reported %Inh = ? 0

Entry COC(=O)c1c(-c2ccccc2)c2cc(Br)ccc2c(=O)n1Cc1ccc(NC(=O)CCC(=O)O)cc1 : reported %Inh = ? 7

Entry CN1C(=O)C(Nc2ccccc2)=C(c2ccccc2)C1=O : reported %Inh = ? 14

Entry CCc1nc(-c2cccc(C)c2)c(-c2ccncc2)s1 : reported %Inh = ? 0

Entry COc1cccc(-n2cnc3c(N)ncnc32)c1 : reported %Inh = ? 57

Entry CC(C)(C)c1ccc(C(=O)Nc2cn3cc(-c4ccccc4)ccc3n2)cc1 : reported %Inh = ? 0

Entry Nc1nccc2scc(-c3ccc4c(c3)CCN4C(=O)Cc3ccccc3)c12 : reported %Inh = ? 2

Entry Cc1nn2c(=O)cc(N3CCOCC3)nc2n1Cc1cccc(Cl)c1Cl : reported %Inh = ? 4

Entry Nc1n[nH]c2ncc(-c3ccccc3)cc12 : reported %Inh = ? 34

Entry O=C1NC(=O)C(c2ccccc2)=C1Nc1cccc(O)c1 : reported %Inh = ? 10

====

Record form. Attribute: %Inh. Fill in for each entry.
Tested on: FLT1
Conditions: concentration: 1 μM, replicates: in singlicate; n = 1
Please reply with the bare figure in % and do not write the unit itself.

Entry Nc1ncnc2c1ncn2-c1cccc(F)c1 [SKF-97560] : reported %Inh = ? 22

Entry Nc1n[nH]c2ncc(-c3ccccc3)cc12 [SB-517081] : reported %Inh = ? 7

Entry CCC(=O)c1c(-c2ccccc2)c2cc(Cl)ccc2c(=O)n1Cc1ccc(C(=O)O)cc1 : reported %Inh = ? 0

Entry Cc1cccc(-c2nc(Nc3ccc4c(cnn4C)c3)c3ccccc3n2)n1 [GW876731] : reported %Inh = ? 0

Entry Cl.c1ccc(Cn2cnc3cc(Nc4ncnc5ccccc45)ccc32)cc1 [GW272142] : reported %Inh = ? 16

====

System: FGFR1
Conditions: concentration: 1 μM, replicates: in singlicate; n = 1
Record form. Attribute: %Inh. Fill in for each entry.
Please reply with the bare figure in % and do not write the unit itself.

Entry COc1cc2ncn(-c3cc(OCc4ccncc4Br)c(C(N)=O)s3)c2cc1OC [GW854278] : reported %Inh = ? 43

Entry COC(=O)c1c(-c2ccccc2)c2cc(Br)ccc2c(=O)n1Cc1ccc(S(C)(=O)=O)cc1 : reported %Inh = ? 0

Entry Nc1nc(N)c2nc(-c3ccccc3)[nH]c2n1 [SKF-12778] : reported %Inh = ? 16

Entry Cc1nnc(-c2ccc(C)c(-c3ccc(C(=O)O)cc3)c2)o1 [GW608005] : reported %Inh = ? 5

Entry CCC(=O)c1c(-c2ccccc2)c2cc(Cl)ccc2c(=O)n1Cc1ccc(C(=O)O)cc1 : reported %Inh = ? 0

Entry COc1ccc(-c2cc3c(C)nc(N)nc3n([C@H]3CC[C@H](OCCO)CC3)c2=O)cn1 : reported %Inh = ? 7

Entry COc1ccc(CNC(=O)NC2CCN(c3ccnc(Nc4ccc(F)cc4)n3)C2)cc1 (stereo not drawn) [GSK1379706] : reported %Inh = ? 0

Entry CCCC(=O)Nc1n[nH]c2ncc(-c3cccc4ccccc34)cc12 [SB-642057] : reported %Inh = ? 0

Entry Cc1cccc(-c2cc(-c3c[nH]nc3-c3ccccn3)ccn2)c1 [GW679395] : reported %Inh = ? 0
